Reference source: patent US12473278B2

molecular target: FLT3 (Homo sapiens (Human), UniProt P36888); test: Measurement of FLT3 enzyme activity; format: biochemical; conditions: FLT3 enzyme activity; read-out: FLT3 (IC50)
Sequence (P36888 27-993): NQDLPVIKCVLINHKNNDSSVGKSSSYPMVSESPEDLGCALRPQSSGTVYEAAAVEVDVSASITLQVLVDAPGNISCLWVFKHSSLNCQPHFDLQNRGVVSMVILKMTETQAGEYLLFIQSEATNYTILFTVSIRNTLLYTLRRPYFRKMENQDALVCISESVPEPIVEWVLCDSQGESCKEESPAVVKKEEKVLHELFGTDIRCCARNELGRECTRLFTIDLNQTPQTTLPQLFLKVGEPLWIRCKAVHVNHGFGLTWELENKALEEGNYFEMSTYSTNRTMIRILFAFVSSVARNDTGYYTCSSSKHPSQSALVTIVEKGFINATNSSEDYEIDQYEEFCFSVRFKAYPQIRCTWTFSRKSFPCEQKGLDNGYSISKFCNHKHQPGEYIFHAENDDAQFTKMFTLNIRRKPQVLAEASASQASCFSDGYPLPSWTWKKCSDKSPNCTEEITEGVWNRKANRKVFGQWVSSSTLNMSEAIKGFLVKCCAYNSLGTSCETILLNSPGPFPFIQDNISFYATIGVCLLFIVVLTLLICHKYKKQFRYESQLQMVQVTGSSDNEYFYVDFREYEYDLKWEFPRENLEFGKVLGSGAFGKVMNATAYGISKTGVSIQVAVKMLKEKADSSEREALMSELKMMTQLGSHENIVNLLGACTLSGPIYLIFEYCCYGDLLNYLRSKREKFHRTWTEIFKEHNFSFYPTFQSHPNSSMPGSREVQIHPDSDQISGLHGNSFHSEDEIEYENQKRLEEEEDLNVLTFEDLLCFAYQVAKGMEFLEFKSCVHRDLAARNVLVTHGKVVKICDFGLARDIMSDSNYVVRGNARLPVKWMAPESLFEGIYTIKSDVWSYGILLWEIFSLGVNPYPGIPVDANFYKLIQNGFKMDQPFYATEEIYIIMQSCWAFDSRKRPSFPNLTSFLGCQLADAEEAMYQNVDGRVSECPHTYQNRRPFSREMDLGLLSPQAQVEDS
pIC50: −log10 of the molar value.
MEASURED PROPERTY: pIC50

Return reported pIC50. Input compound: Cc1oncc1C(=O)Nc1ccc2[nH]c(C3CCCC3)nc2c1
< 5.00

Return reported pIC50. Input compound: CCN1CCN(Cc2cc(-c3nc4cc(NC(=O)c5cnoc5C)ccc4[nH]3)cc(C(F)(F)F)c2)CC1
5.00 to 5.52

Return reported pIC50. Input compound: CC(=O)N1CCC(c2nc3cc(NC(=O)c4cnoc4C)ccc3[nH]2)CC1
< 5.00

Return reported pIC50. Input compound: Cc1oncc1C(=O)Nc1cccc2[nH]c(-c3cc(N4CCN(C)CC4)cc(C(F)(F)F)c3)nc12
> 5.52

Return reported pIC50. Input compound: Cc1oncc1C(=O)Nc1ccc2[nH]c(-c3ccc(N4CCOCC4)c(C(F)(F)F)c3)nc2c1
5.00 to 5.52

Return reported pIC50. Input compound: Cc1oncc1C(=O)Nc1ccc2[nH]c(-c3cc(-n4cncc4C)cc(C(F)(F)F)c3)nc2c1
> 5.52
